# SYSTEM UNDER TEST: 5HT2C receptors (Homo sapiens)
# Sequence (P28335 33-458): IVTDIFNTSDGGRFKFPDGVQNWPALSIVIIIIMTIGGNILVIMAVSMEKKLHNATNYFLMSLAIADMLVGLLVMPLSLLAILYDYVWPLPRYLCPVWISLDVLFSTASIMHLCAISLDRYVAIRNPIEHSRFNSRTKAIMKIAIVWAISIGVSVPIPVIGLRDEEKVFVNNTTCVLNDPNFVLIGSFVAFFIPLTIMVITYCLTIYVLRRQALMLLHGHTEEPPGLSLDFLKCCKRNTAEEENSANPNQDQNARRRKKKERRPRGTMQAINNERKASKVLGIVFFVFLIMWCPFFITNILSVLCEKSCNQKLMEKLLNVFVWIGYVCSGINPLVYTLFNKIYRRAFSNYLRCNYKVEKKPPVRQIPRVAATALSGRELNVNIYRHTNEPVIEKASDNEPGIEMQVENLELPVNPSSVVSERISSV
# MEASUREMENT NOTES: Human 5-HT2C functional assay in CHO-K1 cells (calcium flux, FLIPR)
# Assay type: cell-based
# Set-up: expressed in transfected cells; host or cells: CHO-K1 cells
# SETUP CONDITIONS: CHO-K1 cells over-expressing 5HT2C, calcium flux; read-out: EC50 (μM), 5-HT2c Agonist Activity
EC50 less than 0.07 µM is yes (1); EC50 greater than or equal to 0.07 µM is no (0).

COMPOUND: CC(C)N1CCN2c3ccccc3OCC[C@H]2C1 [Example 264]
SYSTEM UNDER TEST: 5HT2C receptors (Homo sapiens)
CLASS ASSIGNMENT: no (0)
--
COMPOUND: O=C1CC2CNCCN2c2cc(-c3cccc4[nH]ccc34)ccc2N1 (stereo not shown) [Example 68]
SYSTEM UNDER TEST: 5HT2C receptors (Homo sapiens)
CLASS ASSIGNMENT: no (0)
--
COMPOUND: Oc1cccc(-c2ccc3c(c2)N2CCNC[C@@H]2CCO3)c1 [Example 201]
SYSTEM UNDER TEST: 5HT2C receptors (Homo sapiens)
CLASS ASSIGNMENT: no (0)
--
COMPOUND: CC(=O)c1cccc(-c2ccc3c(c2)N2CCNC[C@@H]2CCO3)c1 [Example 198]
SYSTEM UNDER TEST: 5HT2C receptors (Homo sapiens)
CLASS ASSIGNMENT: yes (1)
--
COMPOUND: O=C1CC2CNCCN2c2cc(COc3ccccc3)ccc2N1 (stereo not shown) [Example 111]
SYSTEM UNDER TEST: 5HT2C receptors (Homo sapiens)
CLASS ASSIGNMENT: yes (1)
--
COMPOUND: CCN1CCC2CN(C)CCN2c2ccc(Cl)cc21 (stereo not shown) [Example 82]
SYSTEM UNDER TEST: 5HT2C receptors (Homo sapiens)
CLASS ASSIGNMENT: no (0)
--
COMPOUND: O=C1NC[C@@H]2CNCC[C@@H]2c2ccccc21 (relative stereo) [Example 180]
SYSTEM UNDER TEST: 5HT2C receptors (Homo sapiens)
CLASS ASSIGNMENT: no (0)
--
COMPOUND: c1cc(-c2ccc3c(c2)N2CCNC[C@@H]2CCO3)ccn1 [Example 207]
SYSTEM UNDER TEST: 5HT2C receptors (Homo sapiens)
CLASS ASSIGNMENT: no (0)
--
COMPOUND: CC(O)c1ccc(-c2ccc3c(c2)OCC[C@H]2CNCCN32)cc1 (stereo partly shown) [Example 228]
SYSTEM UNDER TEST: 5HT2C receptors (Homo sapiens)
CLASS ASSIGNMENT: yes (1)
--
COMPOUND: C1=C(c2ccc3c(c2)N2CCNC[C@@H]2CCO3)CCOC1 [Example 210]
SYSTEM UNDER TEST: 5HT2C receptors (Homo sapiens)
CLASS ASSIGNMENT: yes (1)
--
COMPOUND: O=C1CC2CNCCN2c2cc(COc3ccc(F)cc3)ccc2N1 (stereo not shown) [Example 115]
SYSTEM UNDER TEST: 5HT2C receptors (Homo sapiens)
CLASS ASSIGNMENT: no (0)
--
COMPOUND: COc1cccc(-c2ccc3c(c2)N2CCNCC2CC(=O)N3)c1 (stereo not shown) [Example 65]
SYSTEM UNDER TEST: 5HT2C receptors (Homo sapiens)
CLASS ASSIGNMENT: yes (1)
